Consider the following compounds; for each one, report its IC50.
# experimental system: BACE1 (Homo sapiens, UniProt P56817)
# Sequence (P56817 46-501, species assumed): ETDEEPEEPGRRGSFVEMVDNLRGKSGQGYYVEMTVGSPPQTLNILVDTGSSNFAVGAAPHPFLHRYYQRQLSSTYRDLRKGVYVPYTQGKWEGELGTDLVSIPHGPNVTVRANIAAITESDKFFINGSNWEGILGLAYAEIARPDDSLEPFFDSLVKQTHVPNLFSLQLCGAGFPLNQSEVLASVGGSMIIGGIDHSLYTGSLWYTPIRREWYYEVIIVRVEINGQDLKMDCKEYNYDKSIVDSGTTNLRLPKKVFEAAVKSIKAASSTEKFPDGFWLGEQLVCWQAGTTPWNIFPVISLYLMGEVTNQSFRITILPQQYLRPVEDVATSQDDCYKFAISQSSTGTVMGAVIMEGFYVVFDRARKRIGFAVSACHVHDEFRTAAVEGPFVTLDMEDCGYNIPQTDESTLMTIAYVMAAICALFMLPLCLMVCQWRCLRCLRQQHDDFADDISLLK
# assay name: In Vitro BACE Cell-based Assay (HEK cell assay): Aβ40 in conditioned medium of cells stably expressing Amyloid Precursor Protein, sandwich ELISA
# test settings: Table III; IC50's in uM ranges; read-out: HEK cell assay

Take a look at these entries with their results.
- compound: "CC(C)(O)C#Cc1ccc2c(c1)[C@@]1(COC(N)=N1)c1cc(Br)cnc1O2"
  experimental system: "BACE1 (Homo sapiens, UniProt P56817)"
  reported measurement: "> 5 µM"
- compound: "CC(C)(C)CCc1ccc2c(c1)[C@]1(COC(N)=N1)c1cc(Oc3ccccn3)ccc1O2"
  experimental system: "BACE1 (Homo sapiens, UniProt P56817)"
  reported measurement: "0.1 to 1 µM"

Okay, now this compound:
Which IC50 reading was recorded for the compound CC(C)(C)CCc1ccc2c(c1)[C@@]1(COC(N)=N1)c1cc(-c3ccc(F)nc3)ccc1O2 [153a] ?
0.1 to 1 µM

====

# experimental system: BACE1 (Homo sapiens, UniProt P56817)
# assay name: In Vitro Enzymatic BACE FRET (Fluorescence Resonance Energy Transfer) Assay
# Assay type: biochemical
# test settings: read-out: BACE1 FRET assay
pIC50: −log10 of the molar value.
Would you kindly list pIC50 for each of these molecules?

Example molecules with recorded pIC50:
- molecule: "NC1=N[C@@]2(CO1)c1cc(-c3cccnc3)ccc1Oc1cnc(C3=CCOCC3)cc12"
  pIC50: "> 7.00"
- molecule: "CC(C)(C)OC(=O)/C=C/c1ccc2c(c1)[C@]1(COC(N)=N1)c1cc(-c3cccnc3)ccc1O2"
  pIC50: "6.00 to 7.00"
- molecule: "COC(C)(C)C#Cc1ccc2c(c1)[C@@]1(COC(N)=N1)c1cc(OCC(C)(C)O)ccc1O2"
  pIC50: "6.00 to 7.00"
- molecule: "CC(C)(C)OC(=O)Cc1ccc2c(c1)[C@]1(COC(N)=N1)c1cc(-c3cccnc3)ccc1O2"
  pIC50: "6.00 to 7.00"
- molecule: "CC(C)(C)COc1ccc2c(c1)[C@@]1(COC(N)=N1)c1cc(-c3csc(C(F)F)c3)ccc1O2"
  pIC50: "> 7.00"

Look at each molecule and report its pIC50.
1. NC1=N[C@]2(CO1)c1cc(C#CC3(O)COC3)ccc1Oc1ccc(-c3cccnc3)cc12
2. N#CCOc1ccc2c(c1)[C@]1(COC(N)=N1)c1cc(-c3cccnc3)ccc1O2
3. NC1=N[C@@]2(CO1)c1cc(-c3cccnc3)ccc1Oc1ccc(N3CCOCC3)cc12
4. CON(C)C(=O)COc1ccc2c(c1)[C@]1(COC(N)=N1)c1cc(-c3cccnc3)ccc1O2
5. CC1(C)CN(c2cc(F)c3c(c2)[C@]2(COC(N)=N2)c2cc(-c4cncnc4)ccc2O3)CCO1

1. > 7.00
2. 6.00 to 7.00
3. > 7.00
4. 5.30 to 6.00
5. > 7.00

For every item below, please supply its pIC50.
1. CCC1(CC)CN(c2ccc3c(c2)[C@]2(COC(N)=N2)c2cc(-c4cncnc4)ccc2O3)CCO1
2. COC(C)(C)C#Cc1ccc2c(c1)[C@@]1(COC(N)=N1)c1cc(C#CC(C)(C)OC)cnc1O2
3. CC(C)(C)COc1ccc2c(c1)[C@]1(COC(N)=N1)c1cc(-c3csc(C(F)F)c3)ccc1O2
4. CC(C)(C)COc1ccc2c(c1)[C@]1(COC(N)=N1)c1cc(C3CC4CCC3C4)ccc1O2 (stereo partly shown)

["> 7.00", "> 7.00", "> 7.00", "6.00 to 7.00"]

Below are some molecules; for each one, tell me its pIC50.
1. CC(C)(C)CCOc1nccc2c1[C@]1(COC(N)=N1)c1cc(-c3cncnc3)ccc1O2
2. NC1=N[C@@]2(CO1)c1cc(-c3cccnc3)ccc1Oc1cnc([C@@H]3CCCCO3)cc12
3. CN(C)c1ncc(-c2ccc3c(c2)[C@]2(COC(N)=N2)c2cc(OCC(C)(C)C)ccc2O3)cn1
4. NC1=N[C@]2(CO1)c1cc(C3=CCOCC3)ccc1Oc1cc(F)c(O)cc12
5. CC(C)(C)COc1ccc2c(c1)[C@@]1(COC(N)=N1)c1ccccc1O2

1. 6.00 to 7.00
2. > 7.00
3. 6.00 to 7.00
4. 6.00 to 7.00
5. 6.00 to 7.00

I need pIC50 for every entry listed below, if you could help.
1. CC(C)(C)/C=C/c1cc2c(cn1)Oc1ccc(-c3cncnc3)cc1[C@@]21COC(N)=N1
2. CCCOc1cc2c(cc1F)Oc1ccc(-c3cccnc3)cc1[C@]21COC(N)=N1
3. COC1CCN(c2ccc3c(c2)[C@]2(COC(N)=N2)c2cc(-c4cccnc4)ccc2O3)CC1
4. Cc1nc(-c2ccc3c(c2)[C@]2(COC(N)=N2)c2cc(-c4cccnc4)ccc2O3)cs1
5. CCCOc1cc2c(cc1F)Oc1ccc(-c3cncnc3)cc1[C@]21COC(N)=N1
6. CC(C)(C)COc1ccc2c(c1)[C@]1(COC(N)=N1)c1cc(-c3cncs3)ccc1O2
7. NC1=N[C@@]2(CO1)c1cc(-c3cccnc3)ccc1Oc1ccc(-c3cccnc3)nc12
8. CC1(C#Cc2cnc3c(c2)[C@]2(COC(N)=N2)c2cc(-c4cc(F)ccc4F)ccc2O3)COC1

1: > 7.00; 2: 6.00 to 7.00; 3: > 7.00; 4: > 7.00; 5: 6.00 to 7.00; 6: > 7.00; 7: 6.00 to 7.00; 8: > 7.00
